- protocol-text: Pharmacokinetics: plasma level in mice after oral administration
- Type: in vivo, female BALB/c mice
- recorded-conditions: mouse, oral administration of 120 mg/kg, 90 min after administration
assay-metric: concentration at 1.5 h (µM)

- smiles-notation: "COC(=O)N[C@H](C(=O)N[C@@H](Cc1ccccc1)[C@@H](O)CN(Cc1ccc(-c2ccccn2)cc1)NC(=O)[C@@H](NC(=O)OC)C(C)(C)C)C(C)(C)C"
  assay-metric: "concentration at 1.5 h"
  units: "µM"
  val: 31.8

###

- protocol-text: Pharmacokinetics: plasma level in mice after oral administration
- Type: in vivo, female BALB/c mice
- recorded-conditions: mouse, oral administration of 120 mg/kg, 30 min after administration
assay-metric: concentration at 0.5 h

- smiles-notation: "COC(=O)N[C@H](C(=O)N[C@@H](Cc1ccccc1)[C@@H](O)CN(Cc1ccc(-c2ccccn2)cc1)NC(=O)[C@@H](NC(=O)OC)C(C)(C)C)C(C)(C)C"
  assay-metric: "concentration at 0.5 h"
  val: "21.8 µM"

###

- target-entity: HIV-1-protease (Human immunodeficiency virus type 1 group M subtype B)
- Construct: made in house
- protocol-text: Inhibition of HIV-1-protease with icosapeptide substrate […] (HPLC)
- Format: biochemical
- recorded-conditions: icosapeptide […] 122 µM, 20 mM MES pH 6.0, one hour at 37°C; read-out: IC50
Lab note: compare IC50 with 30 nM, writing met if less and not met if equal or more.

- compound: "CCOC(=O)N[C@H](C(=O)NN(Cc1ccc(-c2nccs2)cc1)C[C@H](O)[C@H](Cc1ccccc1)NC(=O)[C@@H](NC(=O)OC)C(C)C)C(C)C [Example 19]"
  assigned-label: "met"
- compound: "COC(=O)N[C@H](C(=O)N[C@@H](Cc1ccccc1)[C@@H](O)CN(Cc1ccc(-c2nccs2)cc1)NC(=O)[C@@H](NC(=O)OC)C(C)(C)C)C(C)C [Example 17]"
  assigned-label: "met"
- compound: "COC(=O)N[C@H](C(=O)N[C@@H](Cc1ccccc1)[C@@H](O)CN(Cc1ccc(-c2cncs2)cc1)NC(=O)[C@@H](NC(=O)OC)C(C)(C)C)C(C)(C)C [Example 3]"
  assigned-label: "not met"
- compound: "CCOC(=O)N[C@H](C(=O)NN(Cc1ccc(-c2cncs2)cc1)C[C@H](O)[C@H](Cc1ccccc1)NC(=O)[C@@H](NC(=O)OC)[C@@H](C)CC)C(C)C [Example 14]"
  assigned-label: "not met"
- compound: "CC[C@H](C)[C@H](NC(=O)OC)C(=O)N[C@@H](Cc1ccccc1)[C@@H](O)CN(Cc1ccc(-c2cncs2)cc1)NC(=O)[C@H](CSC)NC(=O)OC [Example 15]"
  assigned-label: "not met"

###

- target-entity: HIV-1-protease (Human immunodeficiency virus type 1 group M subtype B)
- Construct: made in house
- protocol-text: Inhibition of HIV-1-protease with icosapeptide substrate […] (HPLC)
- Format: biochemical
- recorded-conditions: icosapeptide […] 122 µM, 20 mM MES pH 6.0, one hour at 37°C; read-out: IC50
# reported IC50; entries follow

- smiles-notation: "COC(=O)N[C@H](C(=O)N[C@@H](Cc1ccccc1)[C@@H](O)CN(Cc1ccc(-c2nnn[nH]2)cc1)NC(=O)[C@@H](NC(=O)OC)C(C)(C)C)C(C)(C)C"
  units: "nM"
  IC50: 21
- smiles-notation: "COC(=O)N[C@@H](CSC)C(=O)NN(Cc1ccc(-c2cncs2)cc1)C[C@H](O)[C@H](Cc1ccccc1)NC(=O)[C@@H](NC(=O)OC)C(C)C"
  units: "nM"
  IC50: 20
- smiles-notation: "CC[C@H](C)[C@H](NC(=O)OC)C(=O)NN(Cc1ccc(-c2nccs2)cc1)C[C@H](O)[C@H](Cc1ccccc1)NC(=O)[C@@H](NC(=O)OC)C(C)C"
  units: "nM"
  IC50: 25
- smiles-notation: "COC(=O)N[C@H](C(=O)N[C@@H](Cc1ccccc1)[C@@H](O)CN(Cc1ccc(-c2ccccn2)cc1)NC(=O)[C@@H](NC(=O)OC)C(C)(C)C)C(C)(C)C"
  units: "nM"
  IC50: 26
- smiles-notation: "CC[C@H](C)[C@H](NC(=O)OC)C(=O)NN(Cc1ccc(-c2cnccn2)cc1)C[C@H](O)[C@H](Cc1ccccc1)NC(=O)[C@@H](NC(=O)OC)C(C)C"
  units: "nM"
  IC50: 32

###

- target-entity: HIV-1-protease (Human immunodeficiency virus type 1 group M subtype B, UniProt P04585)
- Construct: made in house
- protocol-text: Inhibition of HIV-1-protease with icosapeptide substrate […] (HPLC)
- Assay type: biochemical
- recorded-conditions: icosapeptide […] 122 µM, 20 mM MES pH 6.0, one hour at 37°C; read-out: IC50
assay-metric: IC50 (nM)

- smiles-notation: "CC[C@H](C)[C@H](NC(=O)OC)C(=O)N[C@@H](Cc1ccccc1)[C@@H](O)CN(Cc1ccc(-c2nccs2)cc1)NC(=O)[C@H](CSC)NC(=O)OC"
  assay-metric: "IC50"
  units: "nM"
  val: 50
- smiles-notation: "COC(=O)N[C@H](C(=O)N[C@@H](Cc1ccccc1)[C@@H](O)CN(Cc1ccc(-c2ccccn2)cc1)NC(=O)[C@@H](NC(=O)OC)C(C)C)C(C)C"
  assay-metric: "IC50"
  units: "nM"
  val: 29
- smiles-notation: "COC(=O)N[C@H](C(=O)N[C@@H](Cc1ccccc1)[C@@H](O)CN(Cc1ccc(-c2nnn(C(C)(C)c3ccccc3)n2)cc1)NC(=O)[C@@H](NC(=O)OC)C(C)(C)C)C(C)(C)C"
  assay-metric: "IC50"
  units: "nM"
  val: 100
- smiles-notation: "CC[C@H](C)[C@H](NC(=O)OC)C(=O)N[C@@H](Cc1ccccc1)[C@@H](O)CN(Cc1ccc(-c2cncs2)cc1)NC(=O)[C@@H](NC(=O)OC)C(C)(C)C"
  assay-metric: "IC50"
  units: "nM"
  val: 37
- smiles-notation: "CC[C@H](C)[C@H](NC(=O)OC)C(=O)N[C@@H](Cc1ccccc1)[C@@H](O)CN(Cc1ccc(-c2cncs2)cc1)NC(=O)[C@@H](NC(=O)OC)[C@@H](C)CC"
  assay-metric: "IC50"
  units: "nM"
  val: 32

###

- target-entity: HIV-1-protease (Human immunodeficiency virus type 1 group M subtype B)
- Construct: made in house
- protocol-text: Inhibition of HIV-1-protease with icosapeptide substrate […] (HPLC)
- Format: biochemical
- recorded-conditions: icosapeptide […] 122 µM, 20 mM MES pH 6.0, one hour at 37°C; read-out: IC50
Listed here are compounds together with their documented IC50.

- smiles-notation: "CC[C@H](C)[C@H](NC(=O)OC)C(=O)NN(Cc1ccc(-c2nnn(C)n2)cc1)C[C@H](O)[C@H](Cc1ccccc1)NC(=O)[C@@H](NC(=O)OC)C(C)(C)C"
  IC50, nM: 54
- smiles-notation: "CCOC(=O)N[C@H](C(=O)N[C@@H](Cc1ccccc1)[C@@H](O)CN(Cc1ccc(-c2ccccn2)cc1)NC(=O)[C@@H](NC(=O)OCC)C(C)C)C(C)C"
  IC50, nM: 85
- smiles-notation: "COC(=O)N[C@H](C(=O)N[C@@H](Cc1ccccc1)[C@@H](O)CN(Cc1ccc(-c2nccs2)cc1)NC(=O)[C@@H](NC(=O)OC)C(C)C)C(C)C"
  IC50, nM: 15
- smiles-notation: "CCOC(=O)N[C@H](C(=O)NN(Cc1ccc(-c2ccccn2)cc1)C[C@H](O)[C@H](Cc1ccccc1)NC(=O)[C@@H](NC(=O)OC)C(C)C)C(C)C"
  IC50, nM: 34

###

- target-entity: HIV-1-protease (Human immunodeficiency virus type 1 group M subtype B)
- Construct: made in house
- protocol-text: Inhibition of HIV-1-protease with icosapeptide substrate […] (HPLC)
- Format: biochemical
- recorded-conditions: icosapeptide […] 122 µM, 20 mM MES pH 6.0, one hour at 37°C; read-out: IC50
# reported IC50; entries follow
assay-metric: IC50 (nM)

- smiles-notation: "COC(=O)N[C@H](C(=O)N[C@@H](Cc1ccccc1)[C@@H](O)CN(Cc1ccc(-c2nnn(C(C)(C)C)n2)cc1)NC(=O)[C@@H](NC(=O)OC)C(C)(C)C)C(C)(C)C"
  assay-metric: "IC50"
  val: 72
- smiles-notation: "CC[C@H](C)[C@H](NC(=O)OC)C(=O)N[C@@H](Cc1ccccc1)[C@@H](O)CN(Cc1ccc(-c2ccccn2)cc1)NC(=O)[C@@H](NC(=O)OC)[C@@H](C)CC"
  assay-metric: "IC50"
  val: 40
- smiles-notation: "CC[C@H](C)[C@H](NC(=O)OC)C(=O)N[C@@H](Cc1ccccc1)[C@@H](O)CN(Cc1ccc(-c2nccs2)cc1)NC(=O)[C@@H](NC(=O)OC)C(C)C"
  assay-metric: "IC50"
  val: 34
- smiles-notation: "CC[C@H](C)[C@H](NC(=O)OC)C(=O)N[C@@H](Cc1ccccc1)[C@@H](O)CN(Cc1ccc(-c2nccs2)cc1)NC(=O)[C@@H](NC(=O)OC)C(C)(C)C"
  assay-metric: "IC50"
  val: 43
- smiles-notation: "COC(=O)N[C@H](C(=O)N[C@@H](Cc1ccccc1)[C@@H](O)CN(Cc1ccc(-c2nccs2)cc1)NC(=O)[C@@H](NC(=O)OC)C(C)(C)C)C(C)(C)C"
  assay-metric: "IC50"
  val: 33
- smiles-notation: "COC(=O)N[C@H](C(=O)N[C@@H](Cc1ccccc1)[C@@H](O)CN(Cc1ccc(-c2cncs2)cc1)NC(=O)[C@@H](NC(=O)OC)C(C)(C)C)C(C)C"
  assay-metric: "IC50"
  val: 13
- smiles-notation: "CC[C@H](C)[C@H](NC(=O)OC)C(=O)NN(Cc1ccc(-c2nnn(C(C)(C)c3ccccc3)n2)cc1)C[C@H](O)[C@H](Cc1ccccc1)NC(=O)[C@@H](NC(=O)OC)C(C)(C)C"
  assay-metric: "IC50"
  val: 83
